Source of measurements: patent US6716866B2

Association Constant, Ka values for the molecules below.
system: DNA sequence ACTACT; assay: Quantitative DNase I footprint titration, site ACTACT; format: binding; details: DNase I footprinting, pH 7.0, 22° C.
PROPERTY_MEASURED: Association Constant, Ka (M⁻¹)

molecule=CN(C)CCCNC(=O)CCNC(=O)c1cc(NC(=O)c2cc(NC(=O)c3cc(NC(=O)c4nc(NC(=O)CCCNC(=O)c5cc(NC(=O)c6cc(NC(=O)c7ccc8nc(-c9nsc(Cl)c9Cl)[nH]c8c7)cn6C)cn5C)cn4C)cn3C)cn2C)cn1C assayed_target="DNA sequence ACTACT" unit_symbol=M⁻¹ number=5e+09
molecule="CN(C)CCCNC(=O)CCNC(=O)c1cc(NC(=O)c2cc(NC(=O)c3cc(NC(=O)c4nc(NC(=O)CCCNC(=O)c5cc(NC(=O)c6cc(NC(=O)c7cc(NC(=O)c8nsc(NCCCN(C)C)c8Cl)cn7C)cn6C)cn5C)cn4C)cn3C)cn2C)cn1C [B, reference compound]" assayed_target="DNA sequence ACTACT" unit_symbol=M⁻¹ number=7e+09
molecule=CN(C)CCCNC(=O)CCNC(=O)c1cc(NC(=O)c2cc(NC(=O)c3cc(NC(=O)c4nc(NC(=O)CCCNC(=O)c5cc(NC(=O)c6cc(NC(=O)c7ccc8nc(-c9nccn9C)[nH]c8c7)cn6C)cn5C)cn4C)cn3C)cn2C)cn1C assayed_target="DNA sequence ACTACT" unit_symbol=M⁻¹ number=5e+09
molecule="CN(C)CCCNC(=O)CCNC(=O)c1cc(NC(=O)c2cc(NC(=O)c3cc(NC(=O)c4nc(NC(=O)CCCNC(=O)c5cc(NC(=O)c6cc(NC(=O)c7cc(NC(=O)c8nccn8C)cn7C)cn6C)cn5C)cn4C)cn3C)cn2C)cn1C [Compound A, reference compound]" assayed_target="DNA sequence ACTACT" unit_symbol=M⁻¹ number=5e+08
